Biological target: OATP1A2*2 (Homo sapiens, UniProt P46721, I13T)
Sequence (P46721 whole entry I13T): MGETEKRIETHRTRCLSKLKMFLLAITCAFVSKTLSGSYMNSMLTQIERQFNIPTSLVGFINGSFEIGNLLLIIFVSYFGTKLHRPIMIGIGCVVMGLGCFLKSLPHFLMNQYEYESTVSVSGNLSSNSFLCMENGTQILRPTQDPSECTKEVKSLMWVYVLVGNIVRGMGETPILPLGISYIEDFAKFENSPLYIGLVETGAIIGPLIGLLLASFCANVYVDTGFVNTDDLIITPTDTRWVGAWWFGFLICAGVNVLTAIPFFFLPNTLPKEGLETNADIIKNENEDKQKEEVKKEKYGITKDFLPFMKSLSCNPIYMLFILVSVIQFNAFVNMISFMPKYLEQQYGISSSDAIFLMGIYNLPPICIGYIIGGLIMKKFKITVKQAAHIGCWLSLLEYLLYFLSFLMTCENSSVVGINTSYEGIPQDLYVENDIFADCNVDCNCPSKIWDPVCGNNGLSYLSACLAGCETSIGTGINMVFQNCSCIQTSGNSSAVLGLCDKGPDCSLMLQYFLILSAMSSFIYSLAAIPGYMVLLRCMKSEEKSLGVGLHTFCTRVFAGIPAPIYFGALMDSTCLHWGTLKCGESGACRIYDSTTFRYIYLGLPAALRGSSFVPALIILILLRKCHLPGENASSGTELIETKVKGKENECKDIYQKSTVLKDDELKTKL
Experiment: in vitro
Conditions: other cell line
observationType: microsomal CLint (µL/min/mg)
Could you give me the number in µL/min/mg? Just the number is fine.

microsomal CLint measured on COc1cccc2c1C(=O)c1c(O)c3c(c(O)c1C2=O)C[C@@](O)(C(=O)CO)C[C@@H]3O[C@H]1C[C@H](N)[C@H](O)[C@H](C)O1 [doxorubicin, Doxorubicin] = 1.39

---

Tested on: OCT1-3 and OATP1A2
Assay: in vitro
Settings: human, OATP1A2*1 and OCT1-3 transfected cells
observationType: Km

Entry COc1cccc2c1C(=O)c1c(O)c3c(c(O)c1C2=O)C[C@@](O)(C(=O)CO)C[C@@H]3O[C@H]1C[C@H](N)[C@H](O)[C@H](C)O1 [doxorubicin, Doxorubicin] — recorded Km = 5 to 13 µM

---

Molecular target: OATP1A2*1 (Homo sapiens)
Test: in vitro
Settings: HEK293 cells stably expressing OATP1A2*1
observationType: Km at 5 min (µM)
Give the number; µM is assumed, so skip it.

Query `COc1cccc2c1C(=O)c1c(O)c3c(c(O)c1C2=O)C[C@@](O)(C(=O)CO)C[C@@H]3O[C@H]1C[C@H](N)[C@H](O)[C@H](C)O1` yields Km at 5 min of 7.49

---

Target: OATP1A2*3 (Homo sapiens, UniProt P46721, E172D)
Sequence (P46721 whole entry E172D): as the sequence (P46721 whole entry I13T) above, with T13I, E172D counted along it
Assay: in vitro
Conditions: HEK293 cells stably expressing OATP1A2*3
observationType: Km (µM)
Report the value in µM with no unit label.

For `COc1cccc2c1C(=O)c1c(O)c3c(c(O)c1C2=O)C[C@@](O)(C(=O)CO)C[C@@H]3O[C@H]1C[C@H](N)[C@H](O)[C@H](C)O1` the compound record lists Km as 5.94

---

Molecular target: OCT2 (Homo sapiens, UniProt O15244)
Sequence (O15244 whole entry): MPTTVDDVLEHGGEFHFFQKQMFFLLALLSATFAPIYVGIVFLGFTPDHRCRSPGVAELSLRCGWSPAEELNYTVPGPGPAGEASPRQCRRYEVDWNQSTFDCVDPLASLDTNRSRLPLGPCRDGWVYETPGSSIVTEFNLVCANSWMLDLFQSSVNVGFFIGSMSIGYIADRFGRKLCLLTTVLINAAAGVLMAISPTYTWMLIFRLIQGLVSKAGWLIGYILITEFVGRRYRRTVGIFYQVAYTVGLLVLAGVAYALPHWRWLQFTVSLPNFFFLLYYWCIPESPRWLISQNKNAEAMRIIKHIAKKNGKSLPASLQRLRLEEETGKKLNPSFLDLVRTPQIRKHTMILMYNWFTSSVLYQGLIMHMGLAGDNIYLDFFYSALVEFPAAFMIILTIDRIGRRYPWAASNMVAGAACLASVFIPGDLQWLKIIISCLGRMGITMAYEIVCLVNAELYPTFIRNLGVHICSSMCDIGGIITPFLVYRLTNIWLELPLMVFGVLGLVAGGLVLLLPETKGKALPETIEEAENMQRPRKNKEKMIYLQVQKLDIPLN
Test: in vitro
Conditions: mdck
observationType: microsomal CLint at 3 min

Per the record, COc1cccc2c1C(=O)c1c(O)c3c(c(O)c1C2=O)C[C@@](O)(C(=O)CO)C[C@@H]3O[C@H]1C[C@H](N)[C@H](O)[C@H](C)O1 [doxorubicin, Doxorubicin] has microsomal CLint at 3 min of 0.5 µL/min/mg

---

Molecular target: OATP1A2*2 (Homo sapiens, UniProt P46721, I13T)
Assay: in vitro
Conditions: HEK293 cells stably expressing OATP1A2*2
observationType: Km

Record `COc1cccc2c1C(=O)c1c(O)c3c(c(O)c1C2=O)C[C@@](O)(C(=O)CO)C[C@@H]3O[C@H]1C[C@H](N)[C@H](O)[C@H](C)O1` , field Km: 5.84 µM

Where do the numbers come from? From paper PMC8745601.
